biological target: HLA-A*02:01 (Homo sapiens, UniProt P04439, D140Y/D185E/D98H/E176V/E277Q/G131W/G231S/I119V/I121R/I166T/I218V/L300P/L318F/N151K/N90K/P208A/P217A/Q86G/Q94H/R138H/R169H/T345S); assay: MHC binding assay: UV-ligand exchange with beta2m ELISA (peptide exchange yield); conditions: binding to HLA-A*02:01
Observed property: Peptide exchange (MHC class I binding score, peptide exchange yield)

                                  substance  reported_measurement
0  131 (FVPPVTVFPSL; listed as Homo sapiens) [compound 131]      “++” (≥20% = ++)
1  261 (YVLEFLEEI; listed as Homo sapiens) [compound 261]      “++” (≥20% = ++)

Provenance of the data: patent US10464978B2
